- Measurement protocol: Cytotoxicity against C57BL/6 mouse BMDM cells incubated for 48 hrs by MTT assay
- Format: toxicity, cell-based
- Study conditions: BMDM cells (bone marrow-derived macrophages)
Measured endpoint: CC50 at 48 h

- CC(=O)O[C@H]1[C@@H](OC(=O)CC(C)C)[C@](O)(CO)[C@@H]2[C@H](OC(C)=O)[C@@]3(O)[C@H](/C=C(CO)\C=C/[C@H](OC(=O)COC(=O)CC(C)C)[C@@]2(C)[C@H]1OC(C)=O)OC(=O)[C@@H]3C: > 50 µM
- C=C1CC[C@H](OC(C)=O)[C@@]2(C)[C@@H](OC(C)=O)C[C@@H](OC(=O)CC(C)C)[C@]3(CO3)[C@@H]2[C@H](OC(C)=O)[C@]2(O)[C@@H](C)C(=O)O[C@H]2[C@H]1Cl [JUNCENOLIDE J]: > 50 µM
- CC(=O)O[C@H]1[C@@H](OC(=O)CC(C)C)[C@](O)(CO)[C@@H]2[C@H](OC(C)=O)[C@@]3(O)[C@H](/C=C(CO)\C=C/[C@H](OC(C)=O)[C@@]2(C)[C@H]1OC(C)=O)OC(=O)[C@@H]3C: > 50 µM

With those in mind, consider the next compound.
Exercise: What value of CC50 at 48 h has been recorded for this entry: `CC(=O)O[C@H]1/C=C\C(CO)=C/[C@@H]2OC(=O)[C@H](C)[C@@]2(O)[C@@H](OC(C)=O)[C@H]2[C@@]3(CO3)[C@H](OC(=O)CC(C)C)C[C@H](OC(C)=O)[C@]12C`
Solution: < 10 µM

###

- Tested on: BMDM
- Measurement protocol: Anti-osteoclastogenesis activity in C57BL/6 mouse BMDM cells assessed as inhibition of RANKL-induced osteoclastogenesis at 10 uM incubated for 7 days in the presence of M-CSF by TRAP-staining based microscopic analysis relative to control
- Type: functional
- Study conditions: C57BL/6, BMDM, 168 h, time 7 day
Measured endpoint: inhibition at 10 µM (%)
Answers are plain numbers, in %.

// known answers, use as guide
• CC(=O)O[C@H]1/C=C\C(CCl)=C/[C@@H]2OC(=O)[C@H](C)[C@@]2(O)[C@@H](OC(C)=O)[C@H]2[C@@]3(CO3)[C@H](OC(=O)CC(C)C)C[C@H](OC(C)=O)[C@]12C = 29.1
• C=C1/C=C/[C@H](OC(C)=O)[C@@]2(C)[C@@H](OC(C)=O)CC[C@]3(CO3)[C@@H]2[C@H](OC(C)=O)[C@]2(O)[C@@H](C)C(=O)O[C@H]2[C@H]1Cl [JUNCEELLOLIDE C] = 75

# input for lookup
Exercise: // returns reported inhibition at 10 µM for input `C=C1/C=C\[C@H](OC(C)=O)[C@@]2(C)[C@@H](OC(C)=O)CC[C@]3(CO3)[C@@H]2[C@H](OC(C)=O)[C@]2(O)[C@@H](C)C(=O)O[C@H]2[C@H]1Cl`
Solution: 97.1
